Test: anti-Giardia activity of synthetic compounds – Compounds Australia Scaffold Library subset, 24/48 h, primary screen (AID 1794835);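 further: 0% = parasite counts in DMSO vehicle wells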
Settings: Giardia lamblia BRIS/91/HEPU/1279 trophozoite counts, imaging, measured here: growth inhibition at 24 h, at 10 µM, stronger effect = higher value
Among all 2,500 compounds or so, about 45 (2%) were called active. Shown is part of a subset that was picked to be rich in actives.
inhibition values by entry

- smi: "Cc1cccc(OCC(=O)N2CCN(Cc3nnsc3Cl)CC2)c1C"
  inhibition / %: 20.5
- smi: "CC(=O)N1N=C2C3CCN(CC3)[C@@H]2[C@@H]1c1cccc2ccccc12"
  inhibition / %: 4.2
- smi: "CC(=O)Nc1ccc([N+](=O)[O-])c2nonc12"
  inhibition / %: 45
- smi: "O=[N+]([O-])c1ccc(N2CCC(c3ncc[nH]3)CC2)c2ccncc12"
  inhibition / %: 64.1
